# System: Salmonella enterica serovar Typhimurium SL1344
# protocolSummary: normalized growth (OD600, IQM-normalized) in LPM (fraction of plate interquartile mean); higher = more bacterial growth (less inhibition)
# testSettings: LPM pH 5.8; 10 µM; 16 h
The full ranking holds about 1,600 compounds; the median of “normalized growth (OD600, IQM-normalized) in LPM” is about 1, and the lowest 2% start at about 0.014. The list comes from a sample in which the lowest values are over-represented; it also holds close analogues and randomly drawn compounds.
Recorded normalized growth for the following compounds
Give a plain numeric answer without units written out.

Example cases with answers are listed next.
Clc1ccccc1CN1CCc2sccc2C1 | 1.02
O=C(O)CCNC(=O)c1ccc(/N=N/c2ccc(O)c(C(=O)O)c2)cc1 | 1

Inquiry: Record request: normalized growth value, item COC(=O)Nc1nc2cc(Sc3ccccc3)ccc2[nH]1
Reply text: 0.987

// provenance: the supplement of paper PMC6331611
